Test system: E. coli
Assay: Inhibition of growth in vitro in liquid culture (NanoOrange fluorescence)
Type: cell-based
Conditions: Escherichia coli, 24 hours incubation
MEASURED_METRIC: IC50

// sample "Cc1nc(C)c(Cl)c(NCc2ccc(Oc3ccc4ncc([N+](=O)[O-])n4n3)cc2)n1" , its IC50 was > 1000 nM

----------
Assign melting point to each entry below.

The compound listed as "Cc1nc(C)c(Cl)c(NCc2cc(O)cc(Oc3ccc4ncc([N+](=O)[O-])n4n3)c2)n1" shows melting point equal to 263 °C

Record "COc1cc(CNc2nc(C)nc(C)c2Cl)cc(Br)c1Oc1ccc2ncc([N+](=O)[O-])n2n1" , field melting point: 230 to 234 °C

Query "COc1cc(CNc2nc(C)nc(C)c2Cl)ccc1Oc1ccc2ncc([N+](=O)[O-])n2n1" yields melting point of 229 to 232 °C

Value of measured melting point for the entry "Cc1nc(C)c(Cl)c(NCc2ccc(Oc3ccc4ncc([N+](=O)[O-])n4n3)c(OCC(F)(F)F)c2)n1" : 185 to 188 °C

// recorded melting point for "Cc1nc(C)c(Cl)c(NCc2ccc(Oc3ccc4ncc([N+](=O)[O-])n4n3)c(O)c2)n1" : > 114 °C

Item: "O=[N+]([O-])c1cnc2ccc(Oc3ccc(CNc4ncncc4Cl)cc3)nn12" | melting point: 185 °C

Entry "Cc1nc(C)c(Cl)c(NCc2ccc(Oc3ccc4ncc([N+](=O)[O-])n4n3)c(F)c2)n1" ; melting point = 193 to 196 °C

melting point reading for "Cc1nc(C)c(Cl)c(NCc2ccc(Oc3ccc4ncc([N+](=O)[O-])n4n3)cc2F)n1" : 147 to 149 °C

Lab note: "Cc1nc(C)c(Cl)c(NCc2ccc(Oc3ccc4ncc([N+](=O)[O-])n4n3)c(C)c2)n1" gave melting point of 183 to 185 °C

In plain terms, "Cc1nc(C)c(Cl)c(NCc2ccc(Oc3ccc4ncc([N+](=O)[O-])n4n3)c(OC(F)F)c2)n1" has a documented melting point of 191 to 193.5 °C

The compound identified as "Cc1nc(C)c(Cl)c(NCc2cccc(Oc3ccc4ncc([N+](=O)[O-])n4n3)c2)n1" registered its melting point at 222 to 223 °C

Summary for this compound, "Cc1nc(C)c(Cl)c(NCc2ccc(Oc3ccc4ncc([N+](=O)[O-])n4n3)cc2)n1" : melting point is 203 °C

Short answer for "Cc1nc(C)c(Cl)c(NCc2ccc(Oc3ccc4ncc([N+](=O)[O-])n4n3)c(OCC3CC3)c2)n1" : melting point was 178 to 180 °C

Reported melting point for "COc1cc(CNc2nc(C)nc(C)c2Cl)cc(Oc2ccc3ncc([N+](=O)[O-])n3n2)c1" was 198 to 199 °C
